Biological target: endogenous Tie2 receptor (Homo sapiens)
Construct: the endogenous Tie2 receptor; host or cells: HUVEC (human umbilical vein endothelial cells)
Sequence (Q02763 23-1124): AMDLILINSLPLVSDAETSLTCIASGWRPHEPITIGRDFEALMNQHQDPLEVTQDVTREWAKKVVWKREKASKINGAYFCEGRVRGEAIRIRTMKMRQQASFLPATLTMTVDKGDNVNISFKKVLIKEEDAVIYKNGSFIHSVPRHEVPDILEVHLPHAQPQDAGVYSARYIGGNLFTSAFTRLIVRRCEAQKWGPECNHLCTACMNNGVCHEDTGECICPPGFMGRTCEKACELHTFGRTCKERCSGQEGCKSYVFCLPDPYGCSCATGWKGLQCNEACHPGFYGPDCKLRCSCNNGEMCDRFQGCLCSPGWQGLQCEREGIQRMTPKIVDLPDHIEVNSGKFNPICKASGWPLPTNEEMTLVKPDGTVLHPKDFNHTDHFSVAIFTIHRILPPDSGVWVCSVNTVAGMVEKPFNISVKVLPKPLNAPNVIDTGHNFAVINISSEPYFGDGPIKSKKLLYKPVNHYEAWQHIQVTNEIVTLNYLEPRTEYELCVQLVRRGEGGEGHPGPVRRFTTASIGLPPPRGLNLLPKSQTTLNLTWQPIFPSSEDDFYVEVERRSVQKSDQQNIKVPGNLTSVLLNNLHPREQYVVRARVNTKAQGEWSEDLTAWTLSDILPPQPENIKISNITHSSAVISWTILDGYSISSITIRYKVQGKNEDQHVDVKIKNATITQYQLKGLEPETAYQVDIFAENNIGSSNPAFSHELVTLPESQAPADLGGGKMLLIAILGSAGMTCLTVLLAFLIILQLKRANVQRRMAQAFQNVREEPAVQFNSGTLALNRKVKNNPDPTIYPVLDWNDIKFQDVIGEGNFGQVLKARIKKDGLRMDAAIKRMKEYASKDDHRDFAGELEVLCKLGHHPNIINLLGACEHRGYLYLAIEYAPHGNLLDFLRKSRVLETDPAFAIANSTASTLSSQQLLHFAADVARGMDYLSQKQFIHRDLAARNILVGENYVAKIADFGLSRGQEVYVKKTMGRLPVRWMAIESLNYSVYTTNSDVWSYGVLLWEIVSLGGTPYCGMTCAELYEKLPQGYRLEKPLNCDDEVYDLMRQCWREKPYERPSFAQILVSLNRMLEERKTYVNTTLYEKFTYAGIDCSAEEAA
Experiment: Tie2-pTyr-ELISA: autophosphorylation of endogenous Tie2 receptor in HUVEC
Assay type: cell-based
Conditions: autophosphorylation elevated by sodium orthovanadate (4 mM), Tie2/phosphotyrosine sandwich ELISA, from 2-7 independent measurements
pIC50: −log10 of the molar value.
measured metric: pIC50

molecule="Cc1cc(C)c(-n2ccn3nc(-c4cccnc4)cc23)cc1NC(=O)c1cc(C#N)cc(S(F)(F)(F)(F)F)c1 [Example 74]" measured_metric=pIC50 readout_value=9.22
molecule="Cc1ccc(NC(=O)c2cc(N3CCN(C)CC3)cc(S(F)(F)(F)(F)F)c2)cc1-n1ccn2nc(-c3cccnc3)cc12 [Example 18]" measured_metric=pIC50 readout_value=7.96
molecule="Cc1ccc(NC(=O)c2cc(-n3ccnc3C)cc(C(F)(F)F)c2)cc1-n1ccn2nc(-c3cccnc3)cc12 [Example 40]" measured_metric=pIC50 readout_value=8.64
molecule="Cc1ccc(NC(=O)c2cc(F)cc(S(F)(F)(F)(F)F)c2)cc1-n1ccn2nc(-c3cccnc3)cc12 [Example 88]" measured_metric=pIC50 readout_value=7.39
